- target of assay: Voltage-dependent calcium channel alpha2delta subunit (Sus scrofa, UniProt O77773)
- Sequence (O77773 whole entry): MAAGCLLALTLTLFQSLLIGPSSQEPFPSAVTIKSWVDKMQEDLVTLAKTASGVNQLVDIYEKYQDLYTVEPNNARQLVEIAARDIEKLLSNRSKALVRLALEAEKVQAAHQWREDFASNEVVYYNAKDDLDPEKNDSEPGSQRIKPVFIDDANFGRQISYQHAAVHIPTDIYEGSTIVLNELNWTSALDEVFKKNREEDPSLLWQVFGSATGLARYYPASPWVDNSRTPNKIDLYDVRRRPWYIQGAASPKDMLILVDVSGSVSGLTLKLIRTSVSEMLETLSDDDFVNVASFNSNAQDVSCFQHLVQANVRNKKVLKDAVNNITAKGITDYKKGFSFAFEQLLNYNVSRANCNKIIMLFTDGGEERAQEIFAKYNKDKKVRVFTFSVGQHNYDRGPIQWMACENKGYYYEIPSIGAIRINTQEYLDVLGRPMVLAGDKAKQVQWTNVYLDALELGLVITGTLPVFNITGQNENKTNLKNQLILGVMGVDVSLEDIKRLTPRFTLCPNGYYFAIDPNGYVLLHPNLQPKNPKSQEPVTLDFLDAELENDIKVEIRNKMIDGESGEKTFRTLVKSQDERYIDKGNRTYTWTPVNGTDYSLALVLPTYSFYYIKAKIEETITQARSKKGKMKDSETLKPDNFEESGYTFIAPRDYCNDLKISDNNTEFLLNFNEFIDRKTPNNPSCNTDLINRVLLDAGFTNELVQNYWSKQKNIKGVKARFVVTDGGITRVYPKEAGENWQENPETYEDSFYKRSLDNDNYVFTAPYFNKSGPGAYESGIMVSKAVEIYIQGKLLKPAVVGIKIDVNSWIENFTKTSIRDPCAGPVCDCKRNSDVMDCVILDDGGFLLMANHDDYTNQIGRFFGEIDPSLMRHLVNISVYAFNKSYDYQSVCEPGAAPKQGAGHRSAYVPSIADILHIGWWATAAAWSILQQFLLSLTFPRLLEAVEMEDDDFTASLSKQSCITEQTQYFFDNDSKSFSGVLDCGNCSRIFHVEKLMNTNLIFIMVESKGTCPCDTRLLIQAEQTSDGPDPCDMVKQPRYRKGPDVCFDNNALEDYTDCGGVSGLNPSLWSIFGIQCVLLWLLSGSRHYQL
- assay procedure: Displacement of [3H]gabapentin from alpha-2delta calcium channel in pig brain membrane
Measured IC50 by item

Below: 3 compounds and their reported IC50.
Record NCC(CC(=O)O)Cc1cccs1 (stereo not drawn) . Reported IC50: 2.14 µM

Record NCC(CC(=O)O)Cc1ccsc1 (stereo not drawn) . Reported IC50: 0.832 µM

Record NCC(CC(=O)O)Cc1ccoc1 (stereo not drawn) . Reported IC50: 0.518 µM

***
Record NCC(CC(=O)O)CC1CCOC1 (stereo not drawn) . Reported IC50: > 10000 µM

Record `NC[C@H](CC(=O)O)Cc1ccco1` . Reported IC50: 0.178 µM

Record `NC[C@@H](CC(=O)O)Cc1ccco1` . Reported IC50: 1.46 µM

Record NCC(CC(=O)O)Cc1ccco1 (stereo not drawn) . Reported IC50: 0.421 µM

Record NCC(CC(=O)O)Cc1ccccc1 (stereo not drawn) . Reported IC50: > 10000 µM

###

- Tested on: Rattus norvegicus
- assay procedure: Anxiolytic effect in rat at 30 mg/kg, po by Vogel water lick conflict assay assessed by ability to reverse shock-induced suppression of drinking
- Type: functional
quantity measured: Activity (%)
# value in %; strip the unit string

Below: 5 compounds and their reported Activity.
Record `NC[C@@H](CC(=O)O)Cc1ccco1` . Reported Activity: 0.28

Record CC(C)C[C@H](CN)CC(=O)O [PREGABALIN] . Reported Activity: 100

Record NCC(CC(=O)O)Cc1ccoc1 (stereo unspecified) . Reported Activity: -17

Record NCC(CC(=O)O)Cc1ccsc1 (stereo unspecified) . Reported Activity: -3

Record NCC(CC(=O)O)Cc1cccs1 (stereo unspecified) . Reported Activity: 10.3

Consider now this further compound.
Record NCC(CC(=O)O)Cc1ccco1 (stereo unspecified) . Reported Activity: 5.3
